- Tested on: HCC827 cells (EGFR Exon19 del, non-small cell lung cancer cells)
- METHOD SUMMARY: Cell viability assay (WST/CCK8), HCC827 cells
- Type: cell-based
- PROTOCOL CONDITIONS: Homo sapiens, HCC827, 72 h, HCC827 (Exon19 Del), 72 hours, WST (CCK8); read-out: IC50 (half inhibitory concentration)
ENDPOINT LABEL: IC50

Task item: Kindly state the measured IC50 obtained for COc1cc2ncnc(Nc3ccc(F)c(Cl)c3)c2cc1NC(=O)/C=C/CN1CCN(C(=O)CCCCSc2cccc3c2CN(C2CCC(=O)NC2=O)C3=O)CC1 (stereo not drawn) with HCC827 cells (EGFR Exon19 del, non-small cell lung cancer cells).
Reply: 3.1 nM

Task item: Kindly state the measured IC50 obtained for COc1cc2ncnc(Nc3ccc(F)c(Cl)c3)c2cc1NC(=O)/C=C/CN1CCN(C(=O)CSc2cccc3c2C(=O)N(C2CCC(=O)NC2=O)C3=O)CC1 (stereo not drawn) with HCC827 cells (EGFR Exon19 del, non-small cell lung cancer cells).
Reply: 23 nM

Task item: Kindly state the measured IC50 obtained for COc1cc2ncnc(Nc3ccc(F)c(Cl)c3)c2cc1NC(=O)/C=C/CN1CCC(N2CCN(C(=O)CCCCCCOc3cccc4c3CN(C3CCC(=O)NC3=O)C4=O)CC2)CC1 (stereo not drawn) with HCC827 cells (EGFR Exon19 del, non-small cell lung cancer cells).
Reply: 0.9 nM
